// reported clearance for each item listed
METHOD_SUMMARY: Clearance in rat at 1 mg/kg, iv measured after 12 hrs
Format: ADME, organism-based
APPLIED_CONDITIONS: in vivo
State just the number; it will be interpreted in mL/min/kg.

[[record]]
structure_string = "C[C@H]1CCN1c1nc(-c2cnn(CC(=O)NCCO)c2)cc(C(F)(F)F)c1C#N"
test_result = 16

[[record]]
structure_string = "C[C@H]1CCN1c1nc(-c2cnn(CC(=O)N(CCO)CCO)c2)cc(C(F)(F)F)c1C#N"
test_result = 23

[[record]]
structure_string = "C[C@H]1CCN1c1nc(-c2cnn(CC(=O)N3C[C@H](O)[C@@H](O)C3)c2)cc(C(F)(F)F)c1C#N"
test_result = 101

[[record]]
structure_string = "C[C@H]1CCN1c1nc(-c2cnn(CC(=O)N3CCNCC3)c2)cc(C(F)(F)F)n1"
test_result = 6

[[record]]
structure_string = "OC[C@H]1CCN1c1nc(-c2cnn(C3CNC3)c2)cc(C(F)(F)F)n1"
test_result = 90

[[record]]
structure_string = "C[C@H]1CCN1c1nc(-c2cnn(CC(=O)N3C[C@@H](O)[C@H](O)C3)c2)cc(C(F)(F)F)c1C#N"
test_result = 71


**Query** Need clearance, item `OC[C@H]1CCN1c1nc(-c2cnn(C3CCNCC3)c2)cc(C(F)(F)F)n1`
**Result** 56

----------
METHOD_SUMMARY: Clearance in dog hepatocytes measured per 10^6 cells
Format: ADME, cell-based, Canis lupus familiaris, Hepatocyte
APPLIED_CONDITIONS: read-out: CLH
In plain terms, low hepatocyte CLint, meaning strictly below 3 µL/min/1e6 cells, gives 1.0, and everything else gives 0.0.

Example entries begin here.
[[record]]
compound = "OC[C@H]1CCN1c1nc(-c2cnn(C3CCNCC3)c2)cc(C(F)(F)F)n1"
answer_label = 0.0

[[record]]
compound = "C[C@H]1CCN1c1nc(-c2cnn(CC(=O)N3C[C@@H](O)[C@H](O)C3)c2)cc(C(F)(F)F)c1C#N"
answer_label = 1.0

[[record]]
compound = "C[C@H]1CCN1c1nc(-c2cnn(C3CCNCC3)c2)cc(C(F)(F)F)c1C#N"
answer_label = 0.0

[[record]]
compound = "C[C@H]1CCN1c1nc(-c2cnn(CC(=O)N3C[C@H](O)[C@@H](O)C3)c2)cc(C(F)(F)F)c1C#N"
answer_label = 1.0

[[record]]
compound = "C[C@H]1CCN1c1nc(-c2cn[nH]c2)cc(C(F)(F)F)c1C#N"
answer_label = 0.0


**Query** Is the reported hepatocyte CLint for C[C@H]1CCN1c1nc(-c2cnn(CC(=O)N3CCNCC3)c2)cc(C(F)(F)F)n1 [LY-3522348] strictly below 3 µL/min/1e6 cells?
**Result** 1.0

**Query** Is the reported hepatocyte CLint for `C[C@H]1CCN1c1nc(-c2cnn(CC(=O)NCCO)c2)cc(C(F)(F)F)c1C#N` strictly below 3 µL/min/1e6 cells?
**Result** 0.0

**Query** Is the reported hepatocyte CLint for `C[C@H]1CCN1c1nc(-c2cnn(C3CNC3)c2)cc(C(F)(F)F)n1` strictly below 3 µL/min/1e6 cells?
**Result** 0.0

**Query** Is the reported hepatocyte CLint for `OC[C@H]1CCN1c1nc(-c2cnn(C3CNC3)c2)cc(C(F)(F)F)n1` strictly below 3 µL/min/1e6 cells?
**Result** 1.0

**Query** Is the reported hepatocyte CLint for `C[C@H]1CCN1c1nc(-c2cnn(C3CN(C)C3)c2)cc(C(F)(F)F)n1` strictly below 3 µL/min/1e6 cells?
**Result** 0.0

**Query** Is the reported hepatocyte CLint for `C[C@H]1CCN1c1nc(-c2cnn(CC(=O)N(CCO)CCO)c2)cc(C(F)(F)F)c1C#N` strictly below 3 µL/min/1e6 cells?
**Result** 1.0

----------
METHOD_SUMMARY: AUC in rat at 2 mg/kg, po measured after 12 hrs
Assay type: ADME, organism-based
Set-up: time 12 hrs, dose 2 mg/kg, route po
APPLIED_CONDITIONS: in vivo
QUANTITY_NAME: AUC at 12 h (µM·h)
State just the number; it will be interpreted in µM·h.

**Query** Need AUC at 12 h, item `C[C@H]1CCN1c1nc(-c2cnn(CC(=O)N3CCNCC3)c2)cc(C(F)(F)F)n1`
**Result** 11.6

----------
METHOD_SUMMARY: Metabolic stability in mouse liver microsomes assessed as compound degradation measured after 30 mins
Type: ADME, Microsome
APPLIED_CONDITIONS: read-out: Drug degradation
QUANTITY_NAME: metabolised at 0.5 h (%)
State just the number; it will be interpreted in %.

These recorded examples may help you get a feel for the data.
[[record]]
compound = "C[C@H]1CCN1c1nc(-c2cnn(C3CCN(C)CC3)c2)cc(C(F)(F)F)c1C#N"
unit_string = "%"
test_result = 86

[[record]]
compound = "C[C@H]1CCN1c1nc(-c2cnn(CCN(C)C)c2)cc(C(F)(F)F)c1C#N"
unit_string = "%"
test_result = 100

[[record]]
compound = "C[C@H]1CCN1c1nc(-c2cnn(CC(=O)N3CCN(C)CC3)c2)cc(C(F)(F)F)c1C#N"
unit_string = "%"
test_result = 93

[[record]]
compound = "C[C@H]1CCN1c1nc(-c2cnn(CC(=O)N3CCNCC3)c2)cc(C(F)(F)F)n1 [LY-3522348]"
unit_string = "%"
test_result = 17


**Query** Need metabolised at 0.5 h, item `C[C@H]1CCN1c1nc(-c2cnn(C3CCN(CCO)CC3)c2)cc(C(F)(F)F)c1C#N`
**Result** 32

**Query** Need metabolised at 0.5 h, item `C[C@H]1CCN1c1nc(-c2cnn(C3CNC3)c2)cc(C(F)(F)F)n1`
**Result** 21

**Query** Need metabolised at 0.5 h, item `OC[C@H]1CCN1c1nc(-c2cnn(C3CCNCC3)c2)cc(C(F)(F)F)n1`
**Result** 13

**Query** Need metabolised at 0.5 h, item `C[C@H]1CCN1c1nc(-c2cnn(C3CCNCC3)c2)cc(C(F)(F)F)n1`
**Result** 8

**Query** Need metabolised at 0.5 h, item `C[C@H]1CCN1c1nc(-c2cnn(C3CCOCC3)c2)cc(C(F)(F)F)c1C#N`
**Result** 98

**Query** Need metabolised at 0.5 h, item `C[C@H]1CCN1c1nc(-c2cnn(C3CN(C)C3)c2)cc(C(F)(F)F)n1`
**Result** 87

**Query** Need metabolised at 0.5 h, item `OC[C@H]1CCN1c1nc(-c2cnn(C3CNC3)c2)cc(C(F)(F)F)n1`
**Result** 20

**Query** Need metabolised at 0.5 h, item `C[C@H]1CCN1c1nc(-c2cnn(C3CCN(C(=O)CN)CC3)c2)cc(C(F)(F)F)c1C#N`
**Result** 18

----------
METHOD_SUMMARY: Cmax in dog at 3 mg/kg, po
Format: ADME, organism-based, Canis lupus familiaris
Parameters: dose 3 mg/kg, route po
APPLIED_CONDITIONS: in vivo
QUANTITY_NAME: Cmax
Don't forget the unit after the value.

**Query** Need Cmax, item `OC[C@H]1CCN1c1nc(-c2cnn(C3CCNCC3)c2)cc(C(F)(F)F)n1`
**Result** 609 nM

----------
Test system: Hepatocyte
METHOD_SUMMARY: Cytotoxicity against rat Primary hepatocyte
Assay type: toxicity, cell-based
APPLIED_CONDITIONS: hepatocytes
// reported LC20 for each item listed

These recorded examples may help you get a feel for the data.
[[record]]
structure_string = "C[C@H]1CCN1c1nc(-c2cnn(C3CN(C)C3)c2)cc(C(F)(F)F)n1"
quantity_name = "LC20"
test_result = "> 50 µM"

[[record]]
structure_string = "C[C@H]1CCN1c1nc(-c2cnn(CC(=O)N(CCO)CCO)c2)cc(C(F)(F)F)c1C#N"
quantity_name = "LC20"
test_result = "> 50 µM"

[[record]]
structure_string = "C[C@H]1CCN1c1nc(-c2cnn(C3CNC3)c2)cc(C(F)(F)F)c1C#N"
quantity_name = "LC20"
test_result = "31 µM"

[[record]]
structure_string = "C[C@H]1CCN1c1nc(-c2cnn(C3CCN(C(=O)CN)CC3)c2)cc(C(F)(F)F)c1C#N"
quantity_name = "LC20"
test_result = "16 µM"

[[record]]
structure_string = "C[C@H]1CCN1c1nc(-c2cnn(CC(=O)N3CCNCC3)c2)cc(C(F)(F)F)n1"
quantity_name = "LC20"
test_result = "> 50 µM"


**Query** Need LC20, item `C[C@H]1CCN1c1nc(-c2cnn(CC(=O)N3C[C@H](O)[C@@H](O)C3)c2)cc(C(F)(F)F)c1C#N`
**Result** > 50 µM

**Query** Need LC20, item `C[C@H]1CCN1c1nc(-c2cnn(C3CCOCC3)c2)cc(C(F)(F)F)c1C#N`
**Result** > 50 µM

**Query** Need LC20, item `C[C@H]1CCN1c1nc(-c2cnn(C3CCNCC3)c2)cc(C(F)(F)F)n1`
**Result** 23 µM

**Query** Need LC20, item `C[C@H]1CCN1c1nc(-c2cnn(CC(=O)N3C[C@@H](O)[C@H](O)C3)c2)cc(C(F)(F)F)c1C#N`
**Result** > 50 µM

**Query** Need LC20, item `OC[C@H]1CCN1c1nc(-c2cnn(C3CNC3)c2)cc(C(F)(F)F)n1`
**Result** > 50 µM

Data provenance: ChEMBL document CHEMBL5375962
